Below is a list of entries, each paired with its recorded bioavailability value.
test: Pharmacokinetic evaluation in rats; type: in vivo, rat; details: rat, plasma, dose and route not given, read-out: F % (bioavailability)
Test readout: bioavailability (%)

INSERT INTO results (compound, unit_label, recorded_measurement) VALUES
  ('C[C@@H](OC[C@H](O)CNC(C)(C)Cc1ccc2ccccc2c1)c1cccc2c1[C@@H]1[C@H](O2)[C@H]1C(=O)O', '%', 7),
  ('C[C@@H](OC[C@H](O)CNC(C)(C)Cc1ccc2ccccc2c1)c1cccc2c1O[C@@H]1[C@@H](C(=O)O)[C@H]21', '%', 24),
  ('CSc1ccc(CC(C)(C)NC[C@@H](O)CO[C@H](C)c2ccc(C)c3c2C2[C@H](O3)[C@H]2C(=O)O)cc1F (stereo partly drawn)', '%', 7);
